# System: Saccharomyces cerevisiae BY4741 SeMeCo community
# PROTOCOL TEXT: z-score of prototroph abundance vs DMSO median; higher = larger share of this subpopulation than in DMSO controls
# SETTINGS: 10 µM; 24 h; SM minimal medium; subpopulation (auxotrophy): Prototroph
Counter-ions that a name gives are not always drawn.
Decide using z-score of prototroph abundance: a value greater than or equal to 0 is criterion met, a smaller one is criterion not met.

Recorded results for 3 compounds are shown here.
CCCCCCCCCCCCCCCC[n+]1ccccc1 [Cetylpyridinium Chloride] ... criterion not met
C=CCN1C[C@H](C(=O)N(CCCN(C)C)C(=O)NCC)C[C@@H]2c3cccc4[nH]cc(c34)C[C@H]21 ... criterion not met
CC(NC(C)(C)C)C(=O)c1cccc(Cl)c1 (configuration not stated) [Amfebutamone (Bupropion) HCl] ... criterion met

Does the reported z-score of prototroph abundance for NCC(O)c1ccc(O)cc1 (racemic) [(+,-)-Octopamine HCl] fall at or above the 0 mark? criterion met

Does the reported z-score of prototroph abundance for CC(=O)OCC1=C(C(=O)O)N2C(=O)C(N)C2SC1 (configuration not stated) fall at or above the 0 mark? criterion met

Does the reported z-score of prototroph abundance for O=[N+]([O-])C(Br)(CO)CO fall at or above the 0 mark? criterion not met

Does the reported z-score of prototroph abundance for CC[C@H]1CN2CC[C@]3(C(=O)Nc4ccccc43)[C@@H]2C[C@@H]1/C(=C\OC)C(=O)OC fall at or above the 0 mark? criterion not met

Does the reported z-score of prototroph abundance for O=C(O[C@H]1C[C@H]2CC[C@@H](C1)[N+]21CCCC1)C(O)(c1ccccc1)c1ccccc1 [Trospium chloride] fall at or above the 0 mark? criterion met
